molecular target: T1, His6-tagged human KRas Isoform 4B (residues 1-169) (human, UniProt P01116-2 1-169); experiment: barcoded rapid assay microchip, fitted curves of FIG. 6B (Hill coefficient 1), triplicate
T1 construct: Expressed in E. coli BL21(DE3), purified on Ni-NTA; also called KRas protein; WT KRas protein; not shown: His6 tag from the PQE80 vector
Ends that are not written are not given here.
Give measured EC50 for each item. Keep answers brief.

[[record]]
binder = "GEVVP (triazole (positions not given here); not fully specified (bridges); also: 1,4-triazole macrocycle, ring places not given here, propargylglycine click handle, place not given here, biotinylated (biotin NovaTag resin), site not given here, also called GEVVP f2) [L3b]"
parameter = "EC50"
recorded_result = "19.4 µM"

[[record]]
binder = "VEVPY (triazole (positions not given here); not fully specified (bridges); also: 1,4-triazole macrocycle, ring places not given here, propargylglycine click handle, place not given here, biotinylated (biotin NovaTag resin), site not given here, also called VEVPY f1) [L4a]"
parameter = "EC50"
recorded_result = "19.6 µM"


Please examine the following record next.
Supply EC50 value. Item: TDNFY (triazole (positions not given here); not fully specified (bridges); also: macrocycle closed by 1,4-triazole, propargylglycine click handle, other ring residues not given here, also called TDNFY) [L8] 8.44 µM

Just for reference, patent US20180284123A1 is where these values come from.
